These measurements were taken from the supplement of paper PMC10307832.

Reported relative viability values follow for various compounds
Tested on: NCI-H1651
Experiment: relative viability (nuclei count vs DMSO), 5 days (fraction); higher = more cells survive
Details: first compound 0.6325 µM
// no unit, no text: just the number

Worked examples follow.
COMPOUND	relative viability
COCC1(CO)C(=O)C2CCN1CC2 (configuration not stated) [PRIMA-1MET] + Cc1nc(NC(=O)N2CCC[C@H]2C(N)=O)sc1-c1ccnc(C(C)(C)C(F)(F)F)c1 [Alpelisib] (partner 2 µM)	0.981
COCC1(CO)C(=O)C2CCN1CC2 (configuration not stated) [PRIMA-1MET] + CC(C)C[C@H](NC(=O)[C@H](Cc1ccccc1)NC(=O)c1cnccn1)B(O)O [Bortezomib] (partner 0.002 µM)	0.847
COCC1(CO)C(=O)C2CCN1CC2 (configuration not stated) [PRIMA-1MET] + COc1cc2c(Oc3ccc(NC(=O)C4(C(=O)Nc5ccc(F)cc5)CC4)cc3F)ccnc2cc1OCCCN1CCOCC1 [Foretinib] (partner 0.25 µM)	0.578
COCC1(CO)C(=O)C2CCN1CC2 (configuration not stated) [PRIMA-1MET] + CC(=O)c1c(C)c2cnc(Nc3ccc(N4CCNCC4)cn3)nc2n(C2CCCC2)c1=O [Palbociclib] (partner 0.5 µM)	0.389
COCC1(CO)C(=O)C2CCN1CC2 (configuration not stated) [PRIMA-1MET] + NC(=O)Nc1cc(-c2cccc(F)c2)sc1C(=O)N[C@H]1CCCNC1 [AZD7762] (partner 0.2 µM)	0.443

Result for COCC1(CO)C(=O)C2CCN1CC2 (configuration not stated) [PRIMA-1MET] + CS(=O)(=O)N1CCN(Cc2cc3nc(-c4cccc5[nH]ncc45)nc(N4CCOCC4)c3s2)CC1 [Pictilisib] (partner 1 µM) , tested on NCI-H1651, relative viability: 0.583

Result for COCC1(CO)C(=O)C2CCN1CC2 (configuration not stated) [PRIMA-1MET] + CCNC(=O)c1noc(-c2cc(C(C)C)c(O)cc2O)c1-c1ccc(CN2CCOCC2)cc1 [Luminespib] (partner 0.01 µM) , tested on NCI-H1651, relative viability: 0.704

----------
Reported relative viability values follow for various molecules
Tested on: EBC-1
Experiment: relative viability (nuclei count vs DMSO), 5 days (fraction); higher = more cells survive
Conditions: first compound 0.01 µM
// no unit, no text: just the number

Record CCN(CC)CCCCNc1ncc2cc(-c3cc(OC)cc(OC)c3)c(NC(=O)NC(C)(C)C)nc2n1 + CS(=O)(=O)CCNCc1ccc(-c2ccc3ncnc(Nc4ccc(OCc5cccc(F)c5)c(Cl)c4)c3c2)o1 [Lapatinib] (partner 2 µM) . Reported relative viability: 0.228

Record CCN(CC)CCCCNc1ncc2cc(-c3cc(OC)cc(OC)c3)c(NC(=O)NC(C)(C)C)nc2n1 + Cc1nc(NC(=O)N2CCC[C@H]2C(N)=O)sc1-c1ccnc(C(C)(C)C(F)(F)F)c1 [Alpelisib] (partner 2 µM) . Reported relative viability: 0.831

Record CCN(CC)CCCCNc1ncc2cc(-c3cc(OC)cc(OC)c3)c(NC(=O)NC(C)(C)C)nc2n1 + COc1cc2c(Oc3ccc(NC(=O)C4(C(=O)Nc5ccc(F)cc5)CC4)cc3F)ccnc2cc1OCCCN1CCOCC1 [Foretinib] (partner 0.25 µM) . Reported relative viability: 0.103

Record CCN(CC)CCCCNc1ncc2cc(-c3cc(OC)cc(OC)c3)c(NC(=O)NC(C)(C)C)nc2n1 + C[C@@H](Oc1cc(-c2cnn(C3CCNCC3)c2)cnc1N)c1c(Cl)ccc(F)c1Cl [Crizotinib] (partner 1 µM) . Reported relative viability: 0.209
